Assay: Cytotoxicity against human MT4 cells after 96 hrs by MTT assay
Format: cell-based
Assign a class from recorded CC50 at 96 h; defined classes: L (below 20 µM), M (20 µM to below 50 µM), H (50 µM or more)

Worked examples, 6 molecules total:
[[record]]
molecule = "CCOC(=O)C(C)c1nc2c(Cl)c3ncccc3cc2[nH]c1=O (configuration not stated)"
assignedlabel = "L"

[[record]]
molecule = "[O-][n+]1n[nH]c2c(Cl)c3ncccc3cc21"
assignedlabel = "H"

[[record]]
molecule = "O=C1Nc2ccc(Cl)cc2[C@@](C#CC2CC2)(C(F)(F)F)O1"
assignedlabel = "M"

[[record]]
molecule = "Oc1ccnc2c(Cl)c3[nH]nnc3cc12"
assignedlabel = "H"

[[record]]
molecule = "CC(C)c1nc2c(Cl)c3ncccc3cc2[nH]c1=O"
assignedlabel = "H"

[[record]]
molecule = "CC(C)c1nc2cc3cccnc3c(Cl)c2[nH]c1=O"
assignedlabel = "M"


Query :: Into which category would you place Clc1c2ncccc2cc2nc(-c3ccccc3)[nH]c12 ?
Result :: M

Query :: Into which category would you place CC(=O)Nc1ccc(-c2nc3cc4cccnc4c(Cl)c3[nH]2)cc1 ?
Result :: H

Query :: Into which category would you place Clc1c2ncccc2cc2nc(C3CCCCC3)[nH]c12 ?
Result :: H

====

Test system: SK-MEL-28
Test: Cytotoxicity against human SK-MEL-28 cells after 96 hrs by MTT assay
Type: functional
Details: SK-MEL-28, 96 h
quantityMeasured: CC50 (µM)
Form entry: value (µM) — number only.

[[record]]
inputsmiles = "CC[C@@]1(O)C(=O)OCc2c1cc1n(c2=O)Cc2cc3ccccc3nc2-1"
quantitymeasured = "CC50"
reported = 0.07


Switching to the query record.
Query :: Suppose we examine the molecule O=c1[nH]c2cc3cccnc3c(Cl)c2nc1-c1ccccc1 ; what CC50 value has been reported?
Result :: 5.6

====

Reported values of CC50 for individual entries
Test: Cytotoxicity against african green monkey Vero 76 cells after 48 to 96 hrs by crystal violet staining
Type: cell-based
Conditions: chlorocebus sabaeus

Check out these entries, answers already filled in.
[[record]]
molecule = "O=[N+]([O-])c1ccc(-c2nc3cc4cccnc4cc3[nH]2)c2ccccc12"
quantitymeasured = "CC50"
reported = "> 100 µM"

[[record]]
molecule = "c1cnc2cc3nccnc3cc2c1"
quantitymeasured = "CC50"
reported = "> 100 µM"


Query :: Suppose we examine the molecule O=C(CCl)Cn1nnc2cc3cccnc3c(Cl)c21 ; what CC50 value has been reported?
Result :: > 100 µM

Query :: Suppose we examine the molecule CCOC(=O)C(C)c1nc2cc3cccnc3c(Cl)c2[nH]c1=O (configuration not stated) ; what CC50 value has been reported?
Result :: > 100 µM

Query :: Suppose we examine the molecule N#CCn1nnc2cc3cccnc3c(Cl)c21 ; what CC50 value has been reported?
Result :: > 100 µM

Query :: Suppose we examine the molecule [O-][n+]1n[nH]c2c(Cl)c3nccc(O)c3cc21 ; what CC50 value has been reported?
Result :: > 100 µM

Query :: Suppose we examine the molecule CCOC(=O)C(C)c1nc2c(Cl)c3ncccc3cc2[nH]c1=O (configuration not stated) ; what CC50 value has been reported?
Result :: > 100 µM

Query :: Suppose we examine the molecule O=c1[nH]c2cc3c(O)ccnc3c(Cl)c2nc1-c1ccccc1 ; what CC50 value has been reported?
Result :: ≥ 100 µM

Query :: Suppose we examine the molecule O=c1[nH]c2cc3cccnc3c(Cl)c2nc1Cc1ccccc1 ; what CC50 value has been reported?
Result :: 88 µM

Query :: Suppose we examine the molecule Clc1c2ncccc2cc2nn[nH]c12 ; what CC50 value has been reported?
Result :: > 100 µM

Query :: Suppose we examine the molecule CCc1nc2cc3cccnc3c(Cl)c2[nH]c1=O ; what CC50 value has been reported?
Result :: 100 µM

Query :: Suppose we examine the molecule Clc1c2ncccc2cc2nc(-c3ccccc3)[nH]c12 ; what CC50 value has been reported?
Result :: > 100 µM
